- condition-label: buffer; pH 7.4; 200.0 µM
quantity-measured: solubility kinetic (µg/mL)
Answer format: numeric, µg/mL implied, no suffix.

Brc1ccccc1CN1CCC(Cc2ccccc2)CC1 = 2.6

We now examine a further molecule.
Give a short answer stating reported solubility kinetic for COc1cc2c(cc1Cl)C(=O)C(F)(c1ccccc1)C(=O)N2 (centres undefined) . 0.8

###

Reported log10(solubility kinetic) values follow for various compounds
- condition-label: buffer; pH 7.4; 200.0 µM
Log10 applied to solubility kinetic; unit prior to transform: µg/mL.

CC(C)CC(=O)Nc1ccc(C(=O)Nc2cccc(O)c2)cc1 = 1.43
O=C(Nc1cccc(Cl)c1)Nc1c[nH]c(=O)[nH]c1=O = 0.53
O=C(Nc1c(-c2cccs2)nc2ccccn12)c1ccccc1F = 1.67
COc1ccc(S(=O)(=O)N2CCCc3ccccc32)cc1OC = 1.45
CCOc1ccccc1Nc1cc(C)c2cccc(C)c2n1 = -0.30
O=C(COc1ccccc1[N+](=O)[O-])NCC1COc2ccccc2O1 (stereo not given) = 1.38
CC1CN(C(=O)/C=C/c2ccccc2Cl)CC(C)O1 (stereo not given) = 1.56
O=C(CN1c2cccc3cccc(c23)S1(=O)=O)NCCc1ccccc1 = 0.30
COc1cccc(-n2ccnc2SCC(=O)Nc2cc(C)on2)c1 = 1.57
O=C(OCC(=O)N1CCC(Cc2ccccc2)CC1)c1ccccc1O = 0.34

Attention now shifts to the item below.
Provide one value: measured log10(solubility kinetic) of O=C1/C(=C/c2cccnc2)CC/C1=C\c1cccnc1 1.23

Ref: PubChem BioAssay AID1996
